Where these numbers come from: the RNAGym collection of RNA variant scans (doi:10.1126/science.aae0568)

B1: tRNA (parent)
chain: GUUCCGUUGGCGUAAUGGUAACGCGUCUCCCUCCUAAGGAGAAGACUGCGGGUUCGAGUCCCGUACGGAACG

# Variants of: B1
# protocol: yeast fitness relative to wild type (ratio to wild type); higher = fitter; tRNA-Arg(CCU), competitive growth, 37 C, YPD
Fewer inactive variants are shown than the library holds.
Entries annotated with measured yeast fitness
Lab note: write the figure by itself, no unit.

Solved entries:
mutation-id: U13A C22G C24A C46G C55U
yeast fitness: 0.551
--
mutation-id: A40G C49G U59G G67C
yeast fitness: 0.706
--
mutation-id: C5A C22G C49G
yeast fitness: 0.563

Please find the next variant below.
# query: yeast fitness of entry C5G A45U
1.01
